Source listed as patent US12692294B2.

Biological target: T1, ErbB4 (Rattus norvegicus, UniProt Q62956)
T1 construct: forming the ErbB2/ErbB4 complex in cardiomyocytes and the ErbB2/ErbB3 complex in Schwann cells; endogenous in cells; host or cells: primary neonatal rat cardiomyocytes (Sprague Dawley pups, 0 to 4 days old)
T1 sequence (Q62956 26-1308): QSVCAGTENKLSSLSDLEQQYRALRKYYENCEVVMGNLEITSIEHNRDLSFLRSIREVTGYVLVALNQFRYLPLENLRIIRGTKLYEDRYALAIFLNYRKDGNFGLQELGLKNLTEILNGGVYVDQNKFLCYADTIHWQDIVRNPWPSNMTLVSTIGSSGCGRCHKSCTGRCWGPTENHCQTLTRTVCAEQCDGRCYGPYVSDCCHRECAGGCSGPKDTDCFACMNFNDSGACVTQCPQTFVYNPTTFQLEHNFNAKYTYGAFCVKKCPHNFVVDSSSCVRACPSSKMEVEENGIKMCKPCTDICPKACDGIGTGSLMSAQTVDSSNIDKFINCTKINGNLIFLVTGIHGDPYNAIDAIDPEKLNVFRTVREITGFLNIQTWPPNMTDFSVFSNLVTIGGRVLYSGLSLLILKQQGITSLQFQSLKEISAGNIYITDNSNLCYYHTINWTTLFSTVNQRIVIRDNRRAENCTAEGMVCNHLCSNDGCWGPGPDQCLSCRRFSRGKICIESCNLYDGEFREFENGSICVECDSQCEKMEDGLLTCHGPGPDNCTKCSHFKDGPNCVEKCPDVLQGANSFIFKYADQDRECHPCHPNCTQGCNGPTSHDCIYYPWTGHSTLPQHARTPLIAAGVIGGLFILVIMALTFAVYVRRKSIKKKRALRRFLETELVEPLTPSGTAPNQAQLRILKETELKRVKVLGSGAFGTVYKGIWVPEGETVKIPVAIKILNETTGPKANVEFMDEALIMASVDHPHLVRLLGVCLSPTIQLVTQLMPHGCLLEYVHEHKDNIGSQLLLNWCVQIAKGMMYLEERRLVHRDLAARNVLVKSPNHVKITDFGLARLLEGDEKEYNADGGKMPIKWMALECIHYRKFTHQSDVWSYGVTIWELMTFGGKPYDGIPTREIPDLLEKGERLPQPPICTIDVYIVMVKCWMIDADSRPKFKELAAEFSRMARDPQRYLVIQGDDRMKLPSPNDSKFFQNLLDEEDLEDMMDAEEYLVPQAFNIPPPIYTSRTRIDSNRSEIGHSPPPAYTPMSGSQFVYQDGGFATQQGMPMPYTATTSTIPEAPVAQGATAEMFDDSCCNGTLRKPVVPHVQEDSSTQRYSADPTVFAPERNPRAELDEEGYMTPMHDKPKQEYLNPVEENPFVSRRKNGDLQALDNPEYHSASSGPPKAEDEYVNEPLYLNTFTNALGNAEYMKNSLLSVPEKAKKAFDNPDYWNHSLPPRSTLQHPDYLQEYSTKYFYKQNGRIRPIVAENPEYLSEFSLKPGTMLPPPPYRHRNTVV
T1 sequence (P06494 23-1257 partner): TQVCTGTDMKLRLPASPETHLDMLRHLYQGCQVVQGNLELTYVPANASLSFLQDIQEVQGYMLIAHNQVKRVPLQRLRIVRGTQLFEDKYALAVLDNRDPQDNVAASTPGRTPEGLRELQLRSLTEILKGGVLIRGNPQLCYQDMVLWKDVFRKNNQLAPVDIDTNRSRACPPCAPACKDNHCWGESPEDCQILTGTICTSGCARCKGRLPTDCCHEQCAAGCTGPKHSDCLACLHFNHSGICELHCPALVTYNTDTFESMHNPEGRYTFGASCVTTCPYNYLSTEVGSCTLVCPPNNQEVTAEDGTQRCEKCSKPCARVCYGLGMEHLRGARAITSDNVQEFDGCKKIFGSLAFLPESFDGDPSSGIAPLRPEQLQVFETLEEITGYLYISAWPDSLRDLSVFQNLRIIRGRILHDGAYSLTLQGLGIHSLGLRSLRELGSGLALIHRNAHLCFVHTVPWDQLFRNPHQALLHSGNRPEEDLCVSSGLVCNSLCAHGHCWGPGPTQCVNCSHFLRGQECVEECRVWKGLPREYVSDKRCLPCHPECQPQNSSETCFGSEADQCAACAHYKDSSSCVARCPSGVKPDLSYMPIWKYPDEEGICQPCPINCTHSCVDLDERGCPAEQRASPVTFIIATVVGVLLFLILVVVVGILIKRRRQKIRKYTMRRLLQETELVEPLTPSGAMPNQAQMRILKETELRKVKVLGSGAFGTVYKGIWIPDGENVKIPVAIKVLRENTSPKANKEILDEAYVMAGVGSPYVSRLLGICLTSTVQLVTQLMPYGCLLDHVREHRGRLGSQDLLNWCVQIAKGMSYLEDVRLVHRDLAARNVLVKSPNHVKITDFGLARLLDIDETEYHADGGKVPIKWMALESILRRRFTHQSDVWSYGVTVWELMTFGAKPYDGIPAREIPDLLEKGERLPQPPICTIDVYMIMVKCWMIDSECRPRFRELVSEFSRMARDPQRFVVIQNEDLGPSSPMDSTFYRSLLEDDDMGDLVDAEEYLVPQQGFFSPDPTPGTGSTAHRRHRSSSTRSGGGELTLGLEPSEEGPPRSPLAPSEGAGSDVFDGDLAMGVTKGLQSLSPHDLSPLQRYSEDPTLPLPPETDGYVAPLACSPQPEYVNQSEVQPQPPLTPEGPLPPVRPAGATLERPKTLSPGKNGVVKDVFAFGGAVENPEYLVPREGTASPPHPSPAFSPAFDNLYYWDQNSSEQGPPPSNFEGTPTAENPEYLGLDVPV
Experiment: In vitro phosphorylation of Akt in neonatal rat cardiomyocytes
Assay type: cell-based
Conditions: Akt (Serine 473) phosphorylation, neonatal rat cardiomyocytes, 15 minutes treatment; read-out: Cardiomyocyte (CM) (ErbB4) Avg EC50
Readout: pEC50
// pEC50: -log10(molar conc.)

Molecule	pEC50
huNRG1(S177-F229)(NRGE1D) (E47V_D48T_F49R_M50L) 6xHis: 6xHis-tagged NRG1 variant SEQ ID NO:130 (protein, 6xHis tag; huNRG1(S177-F229)(NRGE1D) (E47V_D48T_F49R_M50L) 6xHis) SHLVKCGESHKSFCVNGGECYMVEGSSIPSRYLCKCPNEFTGDRCQVTRLASFGGGGEGGGGAGGGGHHHHHH	9.65

Return reported pEC50; argument: huNRG1(S177-S228)(wt)::3x(G4Q)::huFcSEFL2 (Pb): Fc fusion of wild-type NRG1 fragment S177-S228 (protein, huNRG1(S177-S228)(wt)::3x(G4Q)::huFcSEFL2 (Pb)) STYRCVSVLTVLHQDWLNGKEYKCKVSNKALPAPIEKTISKAKGQPREPQVYTLPPSREEMTKNQVSLTCLVKGFYPSDIAVEWESNGQPENNYKTTPPVLDSDGSFFLYSKLTVDKSRWQQGNVFSCSVMHEALHNHYTQKSLSLSPGK 8.59

Requested read-out: pEC50. Entry: huNRG1(S177-F229)(NRGE1D) (E47T_D48S_F49L_M50L) 6xHis: 6xHis-tagged NRG1 variant SEQ ID NO:129 (protein, 6xHis tag; huNRG1(S177-F229)(NRGE1D) (E47T_D48S_F49L_M50L) 6xHis) SHLVKCGESHKSFCVNGGECYMVEGSSIPSRYLCKCPNEFTGDRCQTSLLASFGGGGEGGGGAGGGGHHHHHH 9.48
